System under test: Mcl-1 protein (UniProtKB Q07820) (Homo sapiens (Human), UniProt Q07820)
Sequence (Q07820 whole entry): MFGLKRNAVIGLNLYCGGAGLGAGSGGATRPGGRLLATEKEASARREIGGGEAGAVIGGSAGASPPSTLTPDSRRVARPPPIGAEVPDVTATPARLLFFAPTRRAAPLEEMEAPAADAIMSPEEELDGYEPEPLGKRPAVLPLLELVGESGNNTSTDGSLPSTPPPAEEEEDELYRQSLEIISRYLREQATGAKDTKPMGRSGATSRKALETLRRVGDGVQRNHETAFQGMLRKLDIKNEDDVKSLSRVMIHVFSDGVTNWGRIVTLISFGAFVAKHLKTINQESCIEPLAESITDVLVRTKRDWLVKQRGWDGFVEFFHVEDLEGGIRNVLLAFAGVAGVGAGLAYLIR
Procedure summary: Inhibition of Mcl-1 by the fluorescence polarisation assay (Example A, Method A)
Assay setup: fluorescence polarization assay
Readout kind: Ki (nM)
All answers are understood in nM, so give the number only.

O=C(O)[C@]1(Nc2cccc(Cl)c2)CC[C@]2(CC1)C(c1cc3ccccc3o1)=Cc1ccccc12
2260

## Task Output measured Ki for this item: O=C(O)[C@]1(Nc2cccc(Cl)c2)CC[C@@]2(CC1)c1ccccc1CC2CCCOc1ncnc2c1CCC2 (mixture of isomers)
## Result 85.7

## Task Output measured Ki for this item: Cc1cnccc1OCCCOC1=Cc2ccccc2[C@]12CC[C@@](Nc1cccc(Br)c1)(C(=O)O)CC2
## Result 531

## Task Output measured Ki for this item: COc1ccc2c(c1)[C@]1(CC[C@@](Nc3cccc(Cl)c3)(C(=O)O)CC1)C(Br)=C2
## Result 82.2

## Task Output measured Ki for this item: O=C(O)[C@]1(Nc2cccc(Cl)c2)CC[C@@]2(CC1)c1ccccc1CC2c1ccc(OCc2ccncc2)cc1 (single isomer, unassigned)
## Result 1910

## Task Output measured Ki for this item: CC1(C)CCC=C1C1=Cc2ccccc2[C@]12CC[C@@](Nc1cccc(Cl)c1)(C(=O)O)CC2
## Result 11800

====

System under test: Cy5-labelled Mcl1 (amino acids 171-321) C286S protein (UniProtKB Q07820) (Homo sapiens (Human), UniProt Q07820, C286S)
Sequence (Q07820 171-321 C286S): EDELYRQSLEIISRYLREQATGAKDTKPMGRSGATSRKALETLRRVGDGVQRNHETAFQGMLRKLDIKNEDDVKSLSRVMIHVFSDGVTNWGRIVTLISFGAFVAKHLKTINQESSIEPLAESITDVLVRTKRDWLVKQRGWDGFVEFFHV
Procedure summary: Inhibition of Mcl-1 by the fluorescence quenching assay (Example A, Method B)
Format: binding
Note to self: class labels come from recorded Ki, ranges listed here: low bin: < 2 nM; mid bin: ≥ 2 nM and < 9 nM; high bin: ≥ 9 nM

Solved entries (count: 5):
C[C@@H](COc1ccnc2c1[C@H](C)CCC2)C[C@H]1Cc2cc3c(cc2[C@]12CC[C@@](Nc1cccc(Cl)c1)(C(=O)O)CC2)OCO3
low bin
C[C@@H](COc1ncnc2c1CCCC2)CC1=Cc2ccccc2[C@]12CC[C@@](Nc1cccc(Cl)c1)(C(=O)O)CC2
high bin
C[C@@H](COc1ccnc2c1CCC2O)C[C@H]1Cc2ccccc2[C@]12CC[C@@](Nc1cccc(Cl)c1)(C(=O)O)CC2 (single isomer, unassigned) [Example 609]
mid bin
C[C@@H](COc1ccnc2c1[C@@H](C)CC[C@H]2C)C[C@H]1Cc2ccccc2[C@]12CC[C@@](Nc1cccc(Cl)c1)(C(=O)O)CC2 (single isomer, unassigned) [Example 659]
mid bin
C[C@@H](COc1ccnc2c1[C@H](C)CCC2)C[C@H]1Cc2ccccc2[C@]12CC[C@@](Nc1ccc(F)c(Cl)c1)(C(=O)O)CC2
low bin

## Task Class? Entry: COCCOc1cc2c(cc1Cl)C[C@H](C[C@@H](C)COc1ccnc3c1[C@H](C)CCC3)[C@]21CC[C@](Nc2cccc(Cl)c2)(C(=O)O)CC1
## Result low bin

## Task Class? Entry: CC[C@H]1CC[C@H](F)c2nccc(OC[C@H](C)C[C@H]3Cc4ccccc4[C@]34CC[C@@](Nc3cccc(Cl)c3)(C(=O)O)CC4)c21
## Result high bin

## Task Class? Entry: C[C@@H](COc1ccnc2c1[C@H](C)CCC2)C[C@@H]1Cc2cc(F)ccc2[C@]12CC[C@@](Nc1cccc(Cl)c1)(C(=O)O)CC2
## Result low bin

## Task Class? Entry: COC(=O)OCOC(=O)[C@]1(Nc2cccc(Cl)c2)CC[C@@]2(CC1)c1cc3c(cc1C[C@@H]2C[C@@H](C)COc1ccnc2c1[C@H](C)CCC2)OCO3
## Result high bin

## Task Class? Entry: Cc1cnc2c(c1OC[C@H](C)C[C@H]1Cc3ccccc3[C@]13CC[C@@](Nc1cccc(Cl)c1)(C(=O)O)CC3)CCCC2
## Result mid bin

## Task Class? Entry: C[C@@H](COc1ccnc2ccsc12)C[C@H]1Cc2ccccc2[C@]12CC[C@@](Nc1cccc(Cl)c1)(C(=O)O)CC2
## Result mid bin
